Molecular target: human Fc (human)
Experiment: ELISA, negative control
result_type: optical density (OD)
Number only, in OD; omit the unit.

Some binders with recorded optical density:
binder	optical density / OD
367_E10 (antibody, V domains shown) VH: EVQLLESGGGLVQPGGSLRLSCAASGFTFSSYGMHWVRQAPGKGLEWVSSINYNGGYTGYADSVKGRFTISRDNSKNTLYLQMNSLRAEDTAVYYCARAATWHDTHLDYWGQGTLVTVSS VL: DIQMTQSPSSLSASVGDRVTITCRASQSILSYVNWYQQKPGKAPKLLIYAATSRASGVPSRFSGSGSGTDFTLTISSLQPEDFATYYCQQSYELPLTFGGGTKVEIK	0.271
373_B01 (antibody, V domains shown) VH: EVQLLESGGGLVQPGGSLRLSCAASGFTFDSYGMHWVRQAPGKGLEWVSGINYNGGYKSYADSVKGRFTISRDNSKNTLYLQMNSLRAEDTAVYYCARAATWHDTHLDYWGQGTLVTVSS VL: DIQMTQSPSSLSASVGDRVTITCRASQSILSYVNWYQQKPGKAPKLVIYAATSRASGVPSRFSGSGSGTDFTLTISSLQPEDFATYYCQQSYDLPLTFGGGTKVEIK	0.197
374_G03 (antibody, V domains shown) VH: EVQLLESGGGLVQPGGSLRLSCAASGFTFSDYSMNWVRQAPGKGLEWVSGINYNGGYTSYADSVKGRFTISRDNSKNTLYLQMNSLRAEDTAVYYCARGANWHDTALDYWGQGTLVTVSS VL: DIQMTQSPSSLSASVGDRVTITCRASQSISSYLNWYQQKPGKAPKLVIYAATSRASGVPSRFSGSGSGTDFTLTISSLQPEDFATYYCQQSDDTPLTFGGGTKVEIK	0.193
373_D03 (antibody, V domains shown) VH: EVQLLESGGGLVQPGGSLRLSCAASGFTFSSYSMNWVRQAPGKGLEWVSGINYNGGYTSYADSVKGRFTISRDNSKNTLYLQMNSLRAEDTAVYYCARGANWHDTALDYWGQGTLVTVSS VL: DIQMTQSPSSLSASVGDRVTITCRASQSIVSYLNWYQQKPGKAPKLLIYAATSLASGVPSRFSGSGSGTDFTLTISSLQPEDFATYYCQQSYDTPLTFGGGTKVEIK	0.18
375_D01 (antibody, V domains shown) VH: EVQLLESGGGLVQPGGSLRLSCAASGFTFSSYSMNWVRQAPGKGLEWVSGINYNGGYTGYADSVKGRFTISRDNSKNTLYLQMNSLRAEDTAVYYCARGANWHDTALDYWGQGTLVTVSS VL: DIQMTQSPSSLSASVGDRVTITCRASQSILTYLNWYQQKPGKAPKLVIYAATSRASGVPSRFSGSGSGTDFTLTISSLQPEDFATYYCQQSYETPLTFGGGTKVEIK	0.182

Please fill in: optical density reported for 367_H08 (antibody, V domains shown) VH: EVQLLESGGGLVQPGGSLRLSCAASGFTFDSYGMNWVRQAPGKGLEWVSSINYNGGYTSYADSVKGRFTISRDNSKNTLYLQMNSLRAEDTAVYYCARAATWHDTHLDYWGQGTLVTVSS VL: DIQMTQSPSSLSASVGDRVTITCRASQSILTYVNWYQQKPGKAPKLLIYAATSRHSGVPSRFSGSGSGTDFTLTISSLQPEDFATYYCQQSYNLPLTFGGGTKVEIK = 0.312
